# systemTested: Recombinant human HDAC6 (Homo sapiens, UniProt Q9UBN7)
# Construct: full length, MW=159 kDa; GST (N); host or cells: Sf9 insect cells (baculovirus)
# Sequence (Q9UBN7 whole entry): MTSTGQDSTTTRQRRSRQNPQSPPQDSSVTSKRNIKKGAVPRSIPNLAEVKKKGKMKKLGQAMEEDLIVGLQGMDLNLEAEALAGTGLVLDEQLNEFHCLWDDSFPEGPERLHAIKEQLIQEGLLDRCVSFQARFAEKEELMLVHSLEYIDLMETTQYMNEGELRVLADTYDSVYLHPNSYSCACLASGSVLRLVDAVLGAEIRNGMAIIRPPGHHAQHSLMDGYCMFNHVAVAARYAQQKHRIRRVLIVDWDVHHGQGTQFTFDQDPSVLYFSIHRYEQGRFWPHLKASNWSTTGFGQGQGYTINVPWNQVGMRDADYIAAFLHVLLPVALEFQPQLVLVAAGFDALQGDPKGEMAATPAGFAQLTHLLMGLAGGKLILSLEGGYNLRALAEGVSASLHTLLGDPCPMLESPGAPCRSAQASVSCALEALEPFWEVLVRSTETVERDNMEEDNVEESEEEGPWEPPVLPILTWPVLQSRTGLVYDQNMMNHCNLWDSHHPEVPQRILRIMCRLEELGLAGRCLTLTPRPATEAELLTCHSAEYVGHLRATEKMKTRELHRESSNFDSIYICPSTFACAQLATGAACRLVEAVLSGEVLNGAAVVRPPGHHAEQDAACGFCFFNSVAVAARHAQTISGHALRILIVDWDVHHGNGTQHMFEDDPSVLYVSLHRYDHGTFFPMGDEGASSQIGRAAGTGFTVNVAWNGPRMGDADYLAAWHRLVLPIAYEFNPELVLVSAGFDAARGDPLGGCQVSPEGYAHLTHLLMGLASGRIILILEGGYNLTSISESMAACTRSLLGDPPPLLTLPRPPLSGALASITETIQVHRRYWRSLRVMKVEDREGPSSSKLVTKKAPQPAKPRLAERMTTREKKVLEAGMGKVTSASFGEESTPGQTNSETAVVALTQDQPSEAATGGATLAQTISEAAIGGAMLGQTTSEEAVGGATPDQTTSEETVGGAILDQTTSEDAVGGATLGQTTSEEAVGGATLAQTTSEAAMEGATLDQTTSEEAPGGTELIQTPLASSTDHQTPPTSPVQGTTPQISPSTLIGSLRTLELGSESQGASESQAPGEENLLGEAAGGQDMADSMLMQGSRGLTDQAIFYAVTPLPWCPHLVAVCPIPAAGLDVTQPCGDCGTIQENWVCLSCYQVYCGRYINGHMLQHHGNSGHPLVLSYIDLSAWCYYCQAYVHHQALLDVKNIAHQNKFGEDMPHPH
# protocolDetails: HDAC6 biochemical assay, AMC-labeled peptide substrate
# recordedConditions: HDAC6; read-out: HDAC Isoform IC50 (nM) 6
Hi there, I'd appreciate the recorded IC50 for every entry that follows.

Cc1ccnc(N(Cc2ccc(-c3noc(C(F)(F)F)n3)s2)c2cnccn2)n1 [Example AT] | ≤ 10000 nM
FC(F)(F)c1nc(-c2ccc(CN(c3ccccn3)c3ccccn3)s2)no1 [Example U] | ≤ 1000 nM
Cn1cnc2cc(N(Cc3ccc(-c4noc(C(F)(F)F)n4)s3)c3cnccn3)ncc21 [Example AE] | ≤ 10000 nM
O=C(c1ccc(N(Cc2ccc(-c3noc(C(F)(F)F)n3)s2)c2cnccn2)nn1)N1C[C@@H]2C[C@H]1CO2 [Example FE] | ≤ 500 nM
O=C(c1cnnc(N(Cc2ccc(-c3noc(C(F)(F)F)n3)s2)c2cnccn2)c1)N1CC(C(F)F)C1 [Example GK] | ≤ 500 nM

Now for another entry.
Exercise: Given FC(F)(F)c1cnnc(N(Cc2ccc(-c3noc(C(F)(F)F)n3)s2)c2cccnc2)c1 [Example EI] , state its recorded IC50.
Solution: ≤ 10000 nM
